- tested_target: KRas G13D (Homo sapiens, UniProt P01116, G13D)
- Sequence (P01116 1-169 isoform P01116-2 G13D): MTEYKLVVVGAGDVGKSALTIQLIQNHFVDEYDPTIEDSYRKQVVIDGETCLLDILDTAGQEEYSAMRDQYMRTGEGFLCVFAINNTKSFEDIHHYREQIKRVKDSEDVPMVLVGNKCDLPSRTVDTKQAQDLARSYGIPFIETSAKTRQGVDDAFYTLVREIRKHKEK
- Assay type: binding
- test_parameters: single point, 10 nM compound, read-out: Binding to KRas (% inhibition at 10 nM) G13D
What inhibition at 0.01 µM was measured for each of the following?
One number for each entry, in %.

CCc1c(F)ccc2cc(O)cc(N3CCc4c(nc(OC[C@@]56CCCN5C[C@H](F)C6)nc4N4CCCn5nc6c(c5C4)CCNC6=O)C3)c12    97
CCc1c(F)ccc2cc(O)cc(N3CCc4c(nc(OC[C@@]56CCCN5C[C@H](F)C6)nc4N4CCCn5nc(C(=O)N6CC7COCC6C7)cc5C4)C3)c12 (stereo partly drawn)    97

Could you report inhibition at 0.01 µM for every entry in the following list?
1. CCc1c(F)ccc2cc(O)cc(N3CCc4c(nc(OC[C@@]56CCCN5C[C@H](F)C6)nc4N4CCCc5nc(C(=O)N(C)C)sc5C4)C3)c12
2. CCc1c(F)ccc2cc(O)cc(N3CCc4c(nc(OC[C@@]56CCCN5C[C@H](F)C6)nc4N4CCCn5nc(C(=O)NC)c(C)c5C4)C3)c12
3. CCc1c(F)ccc2cc(O)cc(N3CCc4c(nc(OC[C@@]56CCCN5C[C@H](F)C6)nc4N4CCCn5nc(C(=O)N6CCN(C)CC6)cc5C4)C3)c12
4. CCc1c(F)ccc2cc(O)cc(N3CCc4c(nc(OC[C@@]56CCCN5C[C@H](F)C6)nc4N4CCCn5nc(C(=O)N(C)C)c(OC)c5C4)C3)c12

72
94
98
98

* * *

- tested_target: KRas WT (Homo sapiens, UniProt P01116)
- Sequence (P01116 1-169 isoform P01116-2): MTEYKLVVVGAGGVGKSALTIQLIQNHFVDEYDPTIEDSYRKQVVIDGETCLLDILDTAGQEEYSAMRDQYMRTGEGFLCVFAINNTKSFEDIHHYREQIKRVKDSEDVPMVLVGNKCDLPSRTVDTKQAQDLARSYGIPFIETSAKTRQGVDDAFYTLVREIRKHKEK
- measurement_protocol: KRas binding assay (TR-FRET displacement), KRas WT
- test_parameters: single point, 10 nM compound
Exercise: for every item that follows, state its recorded inhibition at 0.01 µM.
Answers are plain numbers, in %.

CCc1c(F)ccc2cc(O)cc(N3CCc4c(nc(OC[C@@]56CCCN5C[C@H](F)C6)nc4N4CCCn5nc(C(=O)N(C)C(C)C)cc5C4)C3)c12 [Example 381]    97
CCc1c(F)ccc2cc(O)cc(N3CCc4c(nc(OC[C@@]56CCCN5C[C@H](F)C6)nc4N4CCCn5nc(C(=O)N(C)C)c(Br)c5C4)C3)c12 [Example 387]    99

Let us examine a further case.
Find the measured inhibition at 0.01 µM of CCc1c(F)ccc2cc(O)cc(N3CCc4c(nc(OC[C@@]56CCCN5C[C@H](F)C6)nc4N4CCCn5nc(C(=O)N6CC7COCC6C7)cc5C4)C3)c12 (stereo partly drawn) [Example 306] with KRas WT (Homo sapiens, UniProt P01116) as test system.
95

* * *

- Tested on: H460 cells
- measurement_protocol: Inhibition of KRas-mediated phosphorylation of ERK (Cisbio HTRF pERK), H460 cells
- Assay type: cell-based
- test_parameters: Homo sapiens, NCI-H460, single point at 100 nM, 3 hrs compound incubation
attribute_measured: inhibition at 0.1 µM (%)
One number for each entry, in %.

Examples from the recorded data:
CCc1c(F)ccc2cc(O)cc(N3CCc4c(nc(OC[C@@]56CCCN5C[C@H](F)C6)nc4N4CCCn5nc(C(=O)N6CC7CCC6CN7)cc5C4)C3)c12 (stereo partly shown) [Example 264]    0
CCc1c(F)ccc2cc(O)cc(N3CCc4c(nc(OC[C@@]56CCCN5C[C@H](F)C6)nc4N4CCCn5nc(CC(=O)N(C)C)cc5C4)C3)c12 [Example 317]    1
CCc1c(F)ccc2cc(O)cc(N3CCc4c(nc(OC[C@@]56CCCN5C[C@H](F)C6)nc4N4CCCn5nc(C(=O)N6C7CCC6CC7)cc5C4)C3)c12 [Example 340]    69
CCc1c(F)ccc2cc(O)cc(N3CCc4c(nc(OC[C@@]56CCCN5C[C@H](F)C6)nc4N4CCCn5nc(CN(C)S(=O)(=O)NC)cc5C4)C3)c12 [Example 237]    -16
CCc1c(F)ccc2cc(O)cc(N3CCc4c(nc(OC[C@@]56CCCN5C[C@H](F)C6)nc4N4CCCc5nn(C6CC6)cc5C4)C3)c12 [Example 239]    11

Give inhibition at 0.1 µM for each of the items listed below.
1. CCc1c(F)ccc2cc(O)cc(N3CCc4c(nc(OC[C@@]56CCCN5C[C@H](F)C6)nc4N4CCCn5nc(C(=O)N6CC7CC(C6)N(C)C7)cc5C4)C3)c12 (stereo partly shown) [Example 500]
2. CCc1c(F)ccc2cc(O)cc(N3CCc4c(nc(OC[C@@]56CCCN5C[C@H](F)C6)nc4N4CCCn5nc(C(=O)NC)c(OC)c5C4)C3)c12 [Example 320]
3. CCc1c(F)ccc2cc(O)cc(N3CCc4c(nc(OC[C@@]56CCCN5C[C@H](F)C6)nc4N4CCCc5n[nH]cc5C4)C3)c12 [Example 361]
4. CCc1c(F)ccc2cc(O)cc(N3CCc4c(nc(OC[C@@]56CCCN5C[C@H](F)C6)nc4N4CCCn5nc(C(=O)N6CCC7CC6CN7C)cc5C4)C3)c12 (stereo partly shown) [Example 501]

1. 22
2. 56
3. 1
4. 17

Required: inhibition at 0.1 µM, one value per molecule below.
1. CCc1c(F)ccc2cc(O)cc(N3CCc4c(nc(OC[C@@]56CCCN5C[C@H](F)C6)nc4N4CCCn5nc(NS(C)(=O)=O)cc5C4)C3)c12 [Example 364]
2. CCc1c(F)ccc2cc(O)cc(N3CCc4c(nc(OC[C@@]56CCCN5C[C@H](F)C6)nc4N4CCCC5(C4)NC(=O)NC5=S)C3)c12 (stereo partly shown) [Example 250]
3. CCc1c(F)ccc2cc(O)cc(N3CCc4c(nc(OC[C@@]56CCCN5C[C@H](F)C6)nc4N4CCCn5nc(C(=O)N6CC[C@@H]7CC[C@H]6C7)cc5C4)C3)c12 [Example 338]
4. CCc1c(F)ccc2cc(O)cc(N3CCc4c(nc(OC[C@@]56CCCN5C[C@H](F)C6)nc4N4CCCn5nc(CNC(C)=O)cc5C4)C3)c12 [Example 353]

13
36
73
-15
